- System: Streptococcus faecalis W-74
- TEST SUMMARY: Minimum inhibitory concentration (MIC) in vitro, antibacterial spectrum
- Format: cell-based
READOUT NAME: Minimum inhibitory concentration (MIC)

INSERT INTO measurements (molecule, readout_name, result) VALUES
  ('CCN1CCN(C(=O)NC(C(=O)N[C@@H]2C(=O)N3C(C(=O)O)=C(CSc4nc(=O)c(O)nn4C)[C@H](C)O[C@H]23)c2csc(N)n2)C(=O)C1=O (single isomer, unassigned)', 'Minimum inhibitory concentration (MIC)', 6.25),
  ('CO/N=C(\C(=O)N[C@@H]1C(=O)N2C(C(=O)O)=C(CSc3nc(=O)c(O)nn3C)CO[C@H]12)c1csc(N)n1', 'Minimum inhibitory concentration (MIC)', 50),
  ('CCN1CCN(C(=O)NC(C(=O)N[C@@H]2C(=O)N3C(C(=O)O)=C(CSc4nc(=O)c(O)nn4C)CO[C@H]23)c2csc(N)n2)C(=O)C1=O (single isomer, unassigned)', 'Minimum inhibitory concentration (MIC)', 25);

* * *

Collected concentration at 0.25 h values appear next to each entry.
- TEST SUMMARY: Concentration in serum after subcutaneous administration to mice, bioassay with Escherichia coli
- Format: in vivo
- TEST PARAMETERS: mouse, sc, 25 mg/kg subcutaneously, 1/4 hour
READOUT NAME: concentration at 0.25 h (ng/mL)

INSERT INTO results (compound, readout_name, result) VALUES
  ('CO/N=C(\C(=O)N[C@@H]1C(=O)N2C(C(=O)O)=C(CSc3nc(=O)c(O)nn3C)[C@H](C)O[C@H]12)c1csc(N)n1', 'concentration at 0.25 h', 47700),
  ('CCN1CCN(C(=O)NC(C(=O)N[C@@H]2C(=O)N3C(C(=O)O)=C(CSc4nc(=O)c(O)nn4C)CO[C@H]23)c2csc(N)n2)C(=O)C1=O (single isomer, unassigned)', 'concentration at 0.25 h', 34000),
  ('CCN1CCN(C(=O)NC(C(=O)N[C@@H]2C(=O)N3C(C(=O)O)=C(CSc4nc(=O)c(O)nn4C)[C@H](C)O[C@H]23)c2csc(N)n2)C(=O)C1=O (single isomer, unassigned)', 'concentration at 0.25 h', 44000);

* * *

- Tested on: Escherichia coli NIHJ JC-2
- TEST SUMMARY: Minimum inhibitory concentration (MIC) in vitro, antibacterial spectrum
- Type: cell-based
READOUT NAME: Minimum inhibitory concentration (MIC)

INSERT INTO assay_data (compound, result) VALUES
  ('CO/N=C(\C(=O)N[C@@H]1C(=O)N2C(C(=O)O)=C(CSc3nc(=O)c(=O)[nH]n3C)CS[C@H]12)c1csc(N)n1 [Ceftriaxone, reference compound]', 0.10),
  ('CCN1CCN(C(=O)NC(C(=O)N[C@@H]2C(=O)N3C(C(=O)O)=C(CSc4nc(=O)c(O)nn4C)CO[C@H]23)c2csc(N)n2)C(=O)C1=O (single isomer, unassigned) [Compound No. 7]', 0.10),
  ('CO/N=C(\C(=O)N[C@@H]1C(=O)N2C(C(=O)O)=C(CSc3nc(=O)c(O)nn3C)CO[C@H]12)c1csc(N)n1 [Compound No. 3]', 0.10),
  ('Cn1nc(O)c(=O)nc1SCC1=C(C(=O)O)N2C(=O)[C@@H](NC(=O)C(NC=O)c3csc(N)n3)[C@H]2OC1 (stereo partly shown) [Compound No. 8]', 0.05);
